Biological target: T1, TNFR1 (Homo sapiens, UniProt P19438)
T1 chain: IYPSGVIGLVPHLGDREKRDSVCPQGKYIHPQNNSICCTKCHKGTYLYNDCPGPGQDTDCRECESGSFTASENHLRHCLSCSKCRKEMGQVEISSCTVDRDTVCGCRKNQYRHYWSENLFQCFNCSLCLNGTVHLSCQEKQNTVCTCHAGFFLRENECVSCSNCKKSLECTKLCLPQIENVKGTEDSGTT
Experiment: yeast display SC50
PROPERTY MEASURED: apparent Kd (screen) (nM)
Record the value in nM, omitting the unit from your answer.

# BINDER, apparent Kd (screen) [nM]
records = [
    ("A83D (designed binder) MTLQELLREEALRRAEAEAFRYALELLAEKFPEQKEYLLDLAEEIESQIRSLSGVDVEDVRKFLDKEWAWVKELLAEHPAELDEVEAARAARLAELRAEVEAKVAA", 0.49),
    ("A23P (designed binder) MTLQELLREEALRRAEAEAFRYPLELLAEKFPEQKEYLLDLAEEIESQIRSLSGVDVEDVRKFLDKEWAWVKELLAEHPAELAEVEAARAARLAELRAEVEAKVAA", 0.718),
    ("E67T (designed binder) MTLQELLREEALRRAEAEAFRYALELLAEKFPEQKEYLLDLAEEIESQIRSLSGVDVEDVRKFLDKTWAWVKELLAEHPAELAEVEAARAARLAELRAEVEAKVAA", 1.86),
    ("E95R (designed binder) MTLQELLREEALRRAEAEAFRYALELLAEKFPEQKEYLLDLAEEIESQIRSLSGVDVEDVRKFLDKEWAWVKELLAEHPAELAEVEAARAARLARLRAEVEAKVAA", 0.593),
]

Data request, read-out apparent Kd (screen), for R50E (designed binder) MTLQELLREEALRRAEAEAFRYALELLAEKFPEQKEYLLDLAEEIESQIESLSGVDVEDVRKFLDKEWAWVKELLAEHPAELAEVEAARAARLAELRAEVEAKVAA
0.446

Data request, read-out apparent Kd (screen), for W70V (designed binder) MTLQELLREEALRRAEAEAFRYALELLAEKFPEQKEYLLDLAEEIESQIRSLSGVDVEDVRKFLDKEWAVVKELLAEHPAELAEVEAARAARLAELRAEVEAKVAA
20.2

Data request, read-out apparent Kd (screen), for E5D (designed binder) MTLQDLLREEALRRAEAEAFRYALELLAEKFPEQKEYLLDLAEEIESQIRSLSGVDVEDVRKFLDKEWAWVKELLAEHPAELAEVEAARAARLAELRAEVEAKVAA
0.49

Data request, read-out apparent Kd (screen), for K66I (designed binder) MTLQELLREEALRRAEAEAFRYALELLAEKFPEQKEYLLDLAEEIESQIRSLSGVDVEDVRKFLDIEWAWVKELLAEHPAELAEVEAARAARLAELRAEVEAKVAA
0.869

Data request, read-out apparent Kd (screen), for V104K (designed binder) MTLQELLREEALRRAEAEAFRYALELLAEKFPEQKEYLLDLAEEIESQIRSLSGVDVEDVRKFLDKEWAWVKELLAEHPAELAEVEAARAARLAELRAEVEAKKAA
0.593

Data request, read-out apparent Kd (screen), for L39G (designed binder) MTLQELLREEALRRAEAEAFRYALELLAEKFPEQKEYLGDLAEEIESQIRSLSGVDVEDVRKFLDKEWAWVKELLAEHPAELAEVEAARAARLAELRAEVEAKVAA
3

Data request, read-out apparent Kd (screen), for V104T (designed binder) MTLQELLREEALRRAEAEAFRYALELLAEKFPEQKEYLLDLAEEIESQIRSLSGVDVEDVRKFLDKEWAWVKELLAEHPAELAEVEAARAARLAELRAEVEAKTAA
0.956

Data origin: paper PMC12416549
